target: PAI-1 (Homo sapiens, UniProt P05121); assay: biochemical; details: 6.25 μM; read-out: Degree of inhibition in PAI chromogenic substrate assay
Sequence (P05121 24-402): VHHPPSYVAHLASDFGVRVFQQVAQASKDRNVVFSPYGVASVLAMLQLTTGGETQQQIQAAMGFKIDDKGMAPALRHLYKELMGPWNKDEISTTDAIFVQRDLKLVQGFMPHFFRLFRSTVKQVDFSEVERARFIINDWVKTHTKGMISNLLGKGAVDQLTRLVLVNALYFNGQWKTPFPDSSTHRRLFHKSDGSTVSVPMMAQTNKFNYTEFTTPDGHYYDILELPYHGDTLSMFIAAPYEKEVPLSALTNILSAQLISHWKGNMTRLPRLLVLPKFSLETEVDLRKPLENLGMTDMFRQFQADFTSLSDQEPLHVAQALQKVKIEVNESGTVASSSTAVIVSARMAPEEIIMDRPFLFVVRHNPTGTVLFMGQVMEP
Where a name gives a salt, the structure may show the parent alone.
endpoint.name: inhibition at 6.25 µM (%)

# example entries with known answers
{"compound": "COc1ccc(/C=c2\\[nH]c(=O)/c(=C/c3ccc(OCCN(C)C)cc3)[nH]c2=O)cc1", "unit.tag": "%", "inhibition at 6.25 µM": 13}
{"compound": "CCCCOc1ccc(/C=c2\\[nH]c(=O)/c(=C/c3ccc(OCCCN(C)C)cc3)[nH]c2=O)cc1", "unit.tag": "%", "inhibition at 6.25 µM": 33}

I: CN(C)Cc1ccc(/C=c2\[nH]c(=O)/c(=C/c3ccccc3)[nH]c2=O)cc1
II: CN(C)CCOc1ccc(/C=c2\[nH]c(=O)/c(=C/c3ccc(OCCN(C)C)cc3)[nH]c2=O)cc1 [Compound 1962, dihydrochloride]
Please indicate which entry, I or II , has the lower recorded inhibition at 6.25 µM value. // return label of chosen record
II

====

biological target: PAI-1 (Homo sapiens); experiment: biochemical; conditions: 50 μM; read-out: Degree of inhibition in PAI chromogenic substrate assay
Structures can show the parent of a compound that is named as a salt.
endpoint.name: inhibition at 50 µM (%)

{"compound": "CN(C)Cc1ccc(/C=c2\\[nH]c(=O)/c(=C/c3ccccc3)[nH]c2=O)cc1", "unit.tag": "%", "recorded.result": 54}
{"compound": "CN(C)CCCOc1ccc(/C=c2\\[nH]c(=O)/c(=C/c3ccccc3)[nH]c2=O)cc1", "unit.tag": "%", "recorded.result": 71}
{"compound": "CN(C)CCOc1ccc(/C=c2\\[nH]c(=O)/c(=C/c3ccc(OCCN(C)C)cc3)[nH]c2=O)cc1 [Compound 1962, dihydrochloride]", "unit.tag": "%", "recorded.result": 2}
{"compound": "CN(C)CCOc1ccc(/C=c2\\[nH]c(=O)/c(=C/c3ccc(F)cc3F)[nH]c2=O)cc1", "unit.tag": "%", "recorded.result": 47}

P: CC(C)(C)CC(=O)Oc1ccc(/C=c2\[nH]c(=O)/c(=C/c3ccccc3)[nH]c2=O)cc1
Q: CN(C)CCCOc1ccc(/C=c2\[nH]c(=O)/c(=C/c3ccc(OCCCN(C)C)cc3)[nH]c2=O)cc1
R: COc1ccc(/C=c2\[nH]c(=O)/c(=C/c3ccc(OCCN(C)C)cc3)[nH]c2=O)cc1
Rank the 3 compounds: largest inhibition at 50 µM first, smallest last. Form entry: labels listed in requested order.
P, R, Q
(P: 38%, R: 23%, Q: 2%)

====

biological target: PAI-1 (Homo sapiens, UniProt P05121); assay: biochemical; conditions: 100 μM (third part of Table 1); read-out: Degree of inhibition in PAI chromogenic substrate assay
Structures can show the parent of a compound that is named as a salt.
endpoint.name: inhibition at 100 µM (%)

Previously resolved entries follow.
{"molecule": "CN(C)CCSCc1ccc(/C=c2\\[nH]c(=O)/c(=C/c3ccccc3Br)[nH]c2=O)cc1 [Compound 5080.HCl]", "inhibition at 100 µM [%]": 62}
{"molecule": "CN(C)CCCOc1ccc(/C=c2\\[nH]c(=O)/c(=C/c3ccc4c(c3)OCO4)[nH]c2=O)cc1", "inhibition at 100 µM [%]": 47}
{"molecule": "CN(C)CCSCc1ccc(/C=c2\\[nH]c(=O)/c(=C/c3ccccc3)[nH]c2=O)cc1", "inhibition at 100 µM [%]": 67}

I: CN(C)CCCOc1ccc(/C=c2\[nH]c(=O)/c(=C/c3cccc(C#N)c3)[nH]c2=O)cc1
II: CN(C)CCCOc1ccc(/C=c2\[nH]c(=O)/c(=C/c3ccc(Cl)cc3)[nH]c2=O)cc1
III: CN(C)CCCOc1ccc(/C=c2\[nH]c(=O)/c(=C/c3ccc(C(N)=O)cc3)[nH]c2=O)cc1
Order the records by inhibition at 100 µM, with each subsequent value no larger than the one before. Hello, could you send the labels back in the order asked? Thank you.
III, II, I
